Please provide measured growth inhibition for the entries that follow.
Test: NCI Yeast Anticancer Drug Screen. Data for the mec2-1 strain (AID 157)
Conditions: S. cerevisiae mec2-1 strain, at 50.0 µM (retest, dose inferred, filed as 5.0), stronger effect = higher value
Experimental: Growth inhibition of yeast strains with defined genetic alterations is measured as a screen for potential anti-cancer activity. Selected strains with alterations in DNA damage repair or cell cycle control were exposed to compounds and growth inhibition was measured relative to vehicle treated controls. The strain used in this assay is mec2-1
The panel holds about 79,000 compounds, 15% with a hit somewhere; the sample as a whole holds those more often.
Give bare numbers, in %.

Study these solved cases before continuing.
MOLECULAR STRING: COc1ccc2c(c1)[nH]c1c(/C=C/c3ccccc3)nccc12
growth inhibition, %: 93
--
MOLECULAR STRING: CN(C)CCNc1cccc2sc3ccc(O)cc3c(=O)c12
growth inhibition, %: 17
--
MOLECULAR STRING: Clc1nc(C(Cl)Cl)nc2sc3c(c12)CCCC3
growth inhibition, %: 80

Each molecule below has a reported value. Please supply its growth inhibition.
1. COc1cc(N(C)C)ccc1/C=C\c1ccnc2ccccc12
2. O=C(N/N=C\c1c(Cl)cccc1Cl)N/N=C/c1c(Cl)cccc1Cl
3. Cc1ccc2occ/c(=N\Nc3ccccc3)c2c1

Response given:
1. -19
2. 98
3. 23

###

assay: NCI Yeast Anticancer Drug Screen. Data for the wt2 strain (AID 169);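 also: 0% = growth of vehicle-treated yeast cultures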; settings: S. cerevisiae wt2 strain growth inhibition; at 1.2 µM
This is part of a sample that, as a whole, favours compounds with a hit. Of some 79,000 tested, about 15% had one in any assay. Active and inactive are the calls of the source. Rule as the data show it: active = growth inhibition above about 70%; inactive = the rest.
Allowed answers: 1.0 for active, 0.0 for inactive

Consider the following illustrative entries.
COMPOUND: CC(C)(C)[OH+][O-].[O-]c1ccc(Cl)cc1C=Nc1ccc(Cl)cc1[O-].[O]=[V]
LABEL: 0.0
--
COMPOUND: C/C(=N\NC(=S)NC1CCCC1)c1ccccn1
LABEL: 0.0
--
COMPOUND: S=C1SCN(CCc2ccccc2)CN1CCc1ccccc1
LABEL: 0.0

Challenge: For O=C1NC(c2c(Cl)cccc2Cl)Nc2ccccc21 (stereo not drawn) , what call appears in the results of this test?
Response given: 0.0

Challenge: Test call for this compound, please: CC1=CC2C(C(C)C)CC1C1C(=O)OC(=O)C21 (stereo not drawn)
Response given: 0.0

Challenge: Check the results log: what was the call for CC1OC(OC2CCCc3c(O)c4c(c(O)c32)C(=O)c2ccccc2C4=O)CC(N)C1O (stereo not drawn) ?
Response given: 0.0

Challenge: Recorded test call requested for O=C1CC(=O)N(C2CCCCC2)C(=O)N1c1ccccc1S(=O)(=O)Oc1ccccc1
Response given: 0.0

Challenge: Give the logged outcome of this assay for the following compound: CCCCCCCCCCCCCCCCCCNC(=S)/N=C\C1=C(O)c2ccccc2C1=O
Response given: 0.0

Challenge: What did the test return for CCC(=O)N(c1ccccc1)C(C)CN1CCC(O)(c2cccc(C(F)(F)F)c2)CC1 (stereo not drawn) ?
Response given: 0.0

Challenge: Entry C=C(C)[C@@H]1CCc2c(O)c(O)c(=O)cc(C)c2C1 : call = ?
Response given: 0.0

Challenge: // outcome(item) with item = CCOC(=O)Nc1ccc2c(c1)Cc1ccccc1-2
Response given: 0.0
